Data provenance is patent US11248013B2.

Here we list compounds with their recorded IC50 when tested on PARP-1 (Homo sapiens (Human), UniProt P09874).
Sequence (P09874 whole entry): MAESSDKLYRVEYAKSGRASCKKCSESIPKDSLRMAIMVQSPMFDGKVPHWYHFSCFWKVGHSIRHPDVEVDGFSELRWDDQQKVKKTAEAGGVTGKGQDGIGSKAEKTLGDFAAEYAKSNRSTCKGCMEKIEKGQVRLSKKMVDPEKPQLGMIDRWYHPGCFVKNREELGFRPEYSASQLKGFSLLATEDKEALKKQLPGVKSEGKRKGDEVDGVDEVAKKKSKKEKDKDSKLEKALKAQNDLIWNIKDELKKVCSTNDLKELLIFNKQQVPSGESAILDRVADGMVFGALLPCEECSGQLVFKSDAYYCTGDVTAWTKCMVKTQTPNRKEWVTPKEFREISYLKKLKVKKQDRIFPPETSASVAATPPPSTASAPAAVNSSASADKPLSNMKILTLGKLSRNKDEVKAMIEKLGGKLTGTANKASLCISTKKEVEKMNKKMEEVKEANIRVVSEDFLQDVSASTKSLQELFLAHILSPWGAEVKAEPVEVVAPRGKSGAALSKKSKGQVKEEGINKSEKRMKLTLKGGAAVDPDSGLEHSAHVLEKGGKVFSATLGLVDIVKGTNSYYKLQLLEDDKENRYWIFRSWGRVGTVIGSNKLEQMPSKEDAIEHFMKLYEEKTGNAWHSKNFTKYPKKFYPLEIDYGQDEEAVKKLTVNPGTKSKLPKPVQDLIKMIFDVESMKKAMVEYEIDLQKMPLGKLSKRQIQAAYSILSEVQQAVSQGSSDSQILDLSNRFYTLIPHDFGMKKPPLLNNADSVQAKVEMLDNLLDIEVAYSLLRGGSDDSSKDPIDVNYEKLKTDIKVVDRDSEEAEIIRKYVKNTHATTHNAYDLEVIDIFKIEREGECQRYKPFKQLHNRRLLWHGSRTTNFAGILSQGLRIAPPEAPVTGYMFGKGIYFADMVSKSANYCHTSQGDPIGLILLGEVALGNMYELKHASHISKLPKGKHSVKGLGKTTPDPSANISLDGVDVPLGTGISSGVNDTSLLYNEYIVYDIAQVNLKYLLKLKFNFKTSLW

| compound-smiles | assay-system | IC50 |
| --- | --- | --- |
| O=c1[nH]nc(Cc2ccc(F)c(P3(=O)CCN(CC(F)(F)F)CC3)c2)c2ccccc12 | PARP-1 (Homo sapiens (Human), UniProt P09874) | < 100 nM |
| O=c1[nH]nc(Cc2ccc(F)c(P3(=O)CCN(c4nccc(Cl)n4)CC3)c2)c2ccccc12 | PARP-1 (Homo sapiens (Human), UniProt P09874) | < 100 nM |

Now for another entry.
Given "CP1(=O)CCN(C(=O)c2cc(Cc3n[nH]c(=O)c4ccccc34)ccc2F)CC1" , report its IC50 on PARP-1 (Homo sapiens (Human), UniProt P09874).
< 100 nM
